Test system: Acinetobacter baumannii ATCC 17978
Test summary: Antimicrobial susceptibility testing: 90% growth inhibitory concentration (IC90) determination
Assay type: cell-based
Particulars: Acinetobacter baumannii, ATCC17978, 16 h, 90% growth inhibitory concentration; Acinetobacter baumannii ATCC17978; Iso-Sensitest broth, OD 600 nm over 16h; read-out: ATCC17978 IC90
Structures can show the parent of a compound that is named as a salt.

Compound: Cc1cc(Nc2nccn3c(-c4ccc(OC(F)F)cc4)cnc23)ccc1C(=O)NCCN1CCOCC1=O [Example 247]
IC90: 2.4 µM
//
Compound: CCc1cc(Nc2nccn3c(-c4ccc(Oc5ccncn5)c(F)c4F)cnc23)ccc1C(=O)NCCNC(=O)CCN [Example 432, formic acid]
IC90: 0.5 µM
//
Compound: COc1ccc(-c2cnc3c(Nc4ccc(C(=O)NCCCCN)c(C)c4)nccn23)c(F)c1F [Example 513, hydrochloride]
IC90: 0.05 µM
//
Compound: COc1ccc(-c2cnc3c(Nc4ccc(C(=O)NCCN)c(C)c4)nccn23)cc1 [Example 31]
IC90: 2.9 µM

----------
Test system: Acinetobacter baumannii ATCC 17978
Test summary: Antimicrobial susceptibility testing: 90% growth inhibitory concentration (IC90) determination
Type: cell-based
Particulars: Acinetobacter baumannii, ATCC17978, 16 h, 90% growth inhibitory concentration; Acinetobacter baumannii ATCC17978; Iso-Sensitest broth, OD 600 nm over 16h; read-out: ATCC17978 IC90
Counter-ions that a name gives are not always drawn.
For each record, check the reported IC90: if it is below 200 nM write Met, else write Not met.

Compound: CCN(CC)C(=O)c1ccc(Nc2nccn3c(-c4ccc(OC)cc4)cnc23)cc1C
Category label: Not met
--
Compound: COc1ccc(-c2cnc3c(Nc4ccc(C(=O)NCC5CNCCO5)c(Cl)c4)nccn23)cc1F (centres unmarked)
Category label: Not met
--
Compound: Cc1cc(Nc2nccn3c(-c4ccc(Cl)c(F)c4F)cnc23)ccc1C(=O)NCCC1CCN(C)CC1
Category label: Not met
--
Compound: COc1ccc(-c2cnc3c(Nc4ccc(C(=O)NCC5CCN(C)CC5)c(C)c4)nccn23)cc1
Category label: Not met
--
Compound: Cc1cc(Nc2nccn3c(-c4ccc(OC(F)F)cc4)cnc23)ccc1C(=O)NCCN1C[C@@H](C)O[C@@H](C)C1
Category label: Not met
--
Compound: COc1ccc(-c2cnc3c(Nc4ccc(C(=O)NCCCCCCCN)c(Cl)c4)nccn23)c(F)c1F [Example 518, hydrochloride]
Category label: Met
--
Compound: Cc1cc(Nc2nccn3c(-c4ccc(OC(F)F)cc4)cnc23)ccc1C(=O)NCCCCCN1CCOCC1
Category label: Met
--
Compound: CCc1cc(Nc2nccn3c(-c4ccc(OC)c(F)c4F)cnc23)ccc1C(=O)NCC(O)CNC(=O)CCN (centres unmarked) [Example 146, hydrochloride]
Category label: Met
--
Compound: CCc1cc(Nc2nccn3c(-c4ccc(Cl)c(F)c4F)cnc23)ccc1C(=O)NCC1CCNC1 (centres unmarked)
Category label: Not met
--
Compound: CCc1cc(Nc2nccn3c(-c4ccc(OC)c(F)c4F)cnc23)ccc1C(=O)NCCCCCCN1CCCCC1
Category label: Met
--
Compound: Cc1cc(Nc2nccn3c(-c4ccc(OC(F)F)cc4)cnc23)ccc1C(=O)N(C)CCC1CCN(S(C)(=O)=O)CC1
Category label: Not met
--
Compound: CCc1cc(Nc2nccn3c(-c4ccc(OC)c(F)c4F)cnc23)ccc1C(=O)NCCN1CCC(C(N)=O)C1 (centres unmarked)
Category label: Met
--
Compound: CCc1cc(Nc2nccn3c(-c4ccc(OC)c(F)c4F)cnc23)ccc1C(=O)NCCCCCc1nnc2ccccn12
Category label: Met
--
Compound: CCc1cc(Nc2nccn3c(-c4ccc(OCC#N)c(F)c4Cl)cnc23)ccc1C(=O)NCCNC(=O)[C@H](N)CCCNC(=N)N [Example 127, formate]
Category label: Met

These entries and their values trace back to patent US20230012368A1.
